tested on: Mycobacterium tuberculosis; experiment: Cornell M. t heat shock assay; type: functional, organism-based; design: dose or concentration left out as unconfirmed; further: in the data most compounds retested in dose-response had high values
Screen size: about 69,000 compounds; about 950 (1.4%) showed an effect of 50% or more. The entries come from a sample that favours strong results as a whole.
I'd be grateful if you could share measured Percent Effect for these entries.
Give me the value, and tack the unit on after it.

Record request: Percent Effect value, item `CN(C)CCN1CCO[C@@H]2CN(C(=O)Cc3ccsc3)CC[C@@H]2C1`
50.48%

Record request: Percent Effect value, item `COCCN1CCC(C)(c2cc(O)[nH]n2)CC1`
-2.336%

Record request: Percent Effect value, item `Cn1cc(CN2CCCC23CCN(Cc2nccn2C)CC3)cn1.O=C(O)C(F)(F)F.O=C(O)C(F)(F)F`
-17.58%

Record request: Percent Effect value, item CCc1nc(C2CCCN2Cc2nccn2Cc2ccccc2)no1 (stereo unspecified)
20.06%

Record request: Percent Effect value, item Cc1cnc(CN2CCCCC2c2nc(-c3ccccc3)no2)cn1 (stereo unspecified)
5.875%

Record request: Percent Effect value, item COc1ccc(C)cc1CN1CCCC1c1noc(C2CC2)n1 (stereo unspecified)
82.36%

Record request: Percent Effect value, item `CC(C)C(=O)N1CCC(C)(c2cc(O)[nH]n2)CC1`
1.922%

Record request: Percent Effect value, item `O=C(CCn1cc(Cl)cn1)N1C[C@@H]2CC[C@H](C1)N(Cc1ccccn1)C2`
7.885%

Record request: Percent Effect value, item `CN(C)CCN1CCO[C@@H]2CN(C(=O)c3cccs3)CC[C@@H]2C1.O=C(O)C(F)(F)F.O=C(O)C(F)(F)F`
-0.5819%

Record request: Percent Effect value, item `COC[C@@H]1CCC[C@]12CN(Cc1ccco1)CCO2.O=C(O)C(F)(F)F`
-13.34%

Record request: Percent Effect value, item Cc1nc(CN2CCCC2c2noc(C3CC3)n2)nc2ccccc12 (stereo unspecified)
27.9%

Record request: Percent Effect value, item `CCn1c(Cn2cncn2)nnc1C1CCN(C[C@H]2[C@@H]3CNC[C@@H]32)CC1`
-28.34%

Record request: Percent Effect value, item `Cl.Cl.O=C(N[C@@H]1CN[C@H]2CCCO[C@H]21)c1cccnc1`
-32.33%

Record request: Percent Effect value, item `C=C1C(C)(C)[C@H]2CC[C@]1(C(=O)N1CCC(n3cc(CCO)nn3)CC1)C2`
-7.185%

Record request: Percent Effect value, item Cn1ccnc1CN1CCCCC1c1nc(-c2ccccc2)no1 (stereo unspecified)
51.73%

Record request: Percent Effect value, item c1ccc2nc(CN3CCCC3c3noc(C4CC4)n3)ccc2c1 (stereo unspecified)
108.9%

Record request: Percent Effect value, item `CS(=O)(=O)CC(=O)N1C[C@H]2CCC[C@@]2(COCc2ccccn2)C1.O=C(O)C(F)(F)F`
1.254%

Record request: Percent Effect value, item Cc1cc(CN2CCCC2c2noc(C3CC3)n2)c2ccccc2n1 (stereo unspecified)
31.64%

Record request: Percent Effect value, item NC(=O)C1Cn2ccnc2C2(CCN(C(=O)NC3CCCC3)CC2)O1.O=C(O)C(F)(F)F (stereo unspecified)
2.522%

Record request: Percent Effect value, item `NC(=O)N1CCC2(CC1)CN(Cc1cccnc1)C(=O)CO2.O=C(O)C(F)(F)F`
-31.58%

Record request: Percent Effect value, item c1ccc(Cn2ccnc2CN2CCCC2c2noc(C3CC3)n2)cc1 (stereo unspecified)
104.2%

---

test system: Mycobacterium tuberculosis; test: Cornell M. t heat shock assay; assay type: functional, organism-based; design: dose or concentration left out as unconfirmed; further: in the data most compounds retested in dose-response had high values
The campaign covered roughly 69,000 compounds. About 950 (1.4%) showed an effect of 50% or more. The entries come from a sample that favours strong results as a whole.
Labelling field: enter Yes if recorded Percent Effect is less than 10%. Enter No if it equals or exceeds that cut-off.

# strict comparison: is reported Percent Effect < 10%? input = `Cc1noc(C)c1C(=O)N[C@@H]1CCC[C@@H](Oc2ccccc2)[C@@H]1O`
No

# strict comparison: is reported Percent Effect < 10%? input = CCCC(=O)NC1CCc2c(ccc(=O)n2Cc2csc(C)n2)C1.O=C(O)C(F)(F)F (stereo not given)
No

# strict comparison: is reported Percent Effect < 10%? input = `Cc1n[nH]c(C)c1CCC(=O)N[C@@H]1CCC[C@@H](Oc2ccccc2)[C@@H]1O`
Yes

# strict comparison: is reported Percent Effect < 10%? input = `N[C@@H]1CCC[C@@H](Oc2ccc(F)cc2Oc2cccc(F)c2)[C@@H]1O`
Yes

# strict comparison: is reported Percent Effect < 10%? input = `Cc1ccc(Oc2cc(F)ccc2O[C@@H]2CCC[C@@H](N)[C@H]2O)cc1`
No

---

system: Mycobacterium tuberculosis; experiment: Cornell M. t heat shock assay; assay type: functional, organism-based; design: dose or concentration left out as unconfirmed; further: in the data most compounds retested in dose-response had high values
Hit rate of the full screen: of about 69,000 compounds, about 950 (1.4%) showed an effect of 50% or more. Only a selection was taken, and strong results are over-represented in it overall.
readout_kind: Percent Effect

I'm curious: which Percent Effect was measured for `N#Cc1cccc(CN2C(=O)C3(CCNCC3)Nc3ccccc32)c1` tested on Mycobacterium tuberculosis?
-29.61%

I'm curious: which Percent Effect was measured for `NC(=O)c1ccc(CN2C(=O)C3(CCNCC3)Nc3ccccc32)cc1` tested on Mycobacterium tuberculosis?
0.2477%

I'm curious: which Percent Effect was measured for C=Cc1ccc(CN2CCCC3(CNC(=O)c4ccccc4O3)C2)cc1 (stereo not given) tested on Mycobacterium tuberculosis?
-6.668%

I'm curious: which Percent Effect was measured for CNC(=O)CN1CCC2(CCCN(CC3CCOC3)C2)CC1.O=C(O)C(F)(F)F.O=C(O)C(F)(F)F (stereo not given) tested on Mycobacterium tuberculosis?
3.829%

I'm curious: which Percent Effect was measured for `O=C(O)C(F)(F)F.O=C(c1cnccn1)N1C[C@@H]2C[C@@H](c3nc(C4CC4)cs3)O[C@@H]2C1` tested on Mycobacterium tuberculosis?
1.274%

---

tested on: Mycobacterium tuberculosis; assay: Cornell M. t heat shock assay; type: functional, organism-based; parameters: dose or concentration left out as unconfirmed; further: in the data most compounds retested in dose-response had high values
In all, about 69,000 compounds went through this assay and about 950 (1.4%) showed an effect of 50% or more. For the sample, strong results were picked, then their nearest neighbours and some compounds at random.
Percent Effect of 10% or higher: Met. Under 10%: Not met.

Does the compound `CN(Cc1c(F)cccc1Cl)C(=O)Cn1cnc(C#N)n1` have recorded Percent Effect that is 10% or more?
Not met

Does the compound CC(C)(C)c1nc(CNC2CCCN(c3cccnn3)C2)no1 (configuration not stated) have recorded Percent Effect that is 10% or more?
Met

Does the compound `Cc1nnc([C@@]23CCO[C@@H]2CCN(S(=O)(=O)c2ccccc2)C3)o1` have recorded Percent Effect that is 10% or more?
Met

Does the compound `COc1nccnc1-c1cc(NC2CCCC2)nc2[nH]ccc12` have recorded Percent Effect that is 10% or more?
Met

Does the compound `Cl.Cl.c1cnc(NCc2cncc3c2CCN(CC2CC2)C3)nc1` have recorded Percent Effect that is 10% or more?
Not met

Does the compound `COc1cc(-c2cc(NC3CCCC3)nc3[nH]ccc23)nc(N)n1` have recorded Percent Effect that is 10% or more?
Met

Does the compound `O=C(N1CCCC1)N1CC[C@H]2[C@H]1CCN2c1ncccn1.O=C(O)C(F)(F)F` have recorded Percent Effect that is 10% or more?
Not met

Does the compound `Cc1noc([C@@H]2CC[C@@H]3[C@@H](CCN3S(=O)(=O)c3cccnc3)O2)n1.O=C(O)C(F)(F)F` have recorded Percent Effect that is 10% or more?
Met

Does the compound NC(CC1CCCC1)c1ccc(Oc2ccccc2)cc1 (configuration not stated) have recorded Percent Effect that is 10% or more?
Met

Does the compound `N#Cc1ncn(Cc2c(F)cccc2Cl)n1` have recorded Percent Effect that is 10% or more?
Not met

Does the compound Cc1nc(CNC2CCCN(c3cccnn3)C2)no1 (configuration not stated) have recorded Percent Effect that is 10% or more?
Not met

Does the compound `CCCN1CCN(Cc2cc(Cl)cc(Cl)c2)[C@H]2CS(=O)(=O)C[C@H]21` have recorded Percent Effect that is 10% or more?
Met

Does the compound `O=C(O)C(F)(F)F.O=C(O)C(F)(F)F.O=C1[C@H]2CN(Cc3ccoc3)C[C@H]2CN1CCN1CCCC1` have recorded Percent Effect that is 10% or more?
Not met

Does the compound `O=C(O)C(F)(F)F.O=C(c1ccco1)N1CC[C@@H]2CN(C3CCOCC3)CCO[C@@H]2C1` have recorded Percent Effect that is 10% or more?
Met

Does the compound `Nc1ccnc(-c2cc(NC3CCNCC3)nc3[nH]ccc23)c1` have recorded Percent Effect that is 10% or more?
Met

Does the compound `Cc1cccc(CN2C(=O)CC[C@@H]3[C@H]2CCN3Cc2ccc(C)s2)n1.O=C(O)C(F)(F)F.O=C(O)C(F)(F)F` have recorded Percent Effect that is 10% or more?
Not met

Does the compound `O=S1(=O)C[C@@H]2[C@H](C1)N(Cc1cc(Cl)cc(Cl)c1)CCN2CC1CC1` have recorded Percent Effect that is 10% or more?
Met

Does the compound Cl.NC(CC1CCCC1)c1ccccc1 (configuration not stated) have recorded Percent Effect that is 10% or more?
Not met

Does the compound `COc1ncc(-c2ccc(O)cc2)c(OC)n1` have recorded Percent Effect that is 10% or more?
Not met

Does the compound Cl.NC(CC1CCCCC1)c1ccccc1 (configuration not stated) have recorded Percent Effect that is 10% or more?
Not met

Does the compound `COc1ncc(-c2cc(NCCN(C)C)nc3[nH]ccc23)c(OC)n1` have recorded Percent Effect that is 10% or more?
Not met

Does the compound `N#Cc1ncn(CC(=O)Cc2c(F)cccc2Cl)n1` have recorded Percent Effect that is 10% or more?
Met
